- System: intracellular amastigotes of T. cruzi
- Procedure text: Activity against intracellular amastigotes in infected Vero cells (Dm28c-Luc, 72 h)
- Type: cell-based, Trypanosoma cruzi
- Conditions used: CC50 of Vero cells/IC50 of intracellular amastigote
Measured endpoint: Intracellular Amastigotes SI

# example entries with known answers
Compound: Cc1nn(-c2cc(Cl)cc(Cl)c2)c(N)c1C1=NCCN1 [Compound 4b]
Intracellular Amastigotes SI: >5.51
--
Compound: COc1ccc(-n2cc(C3=NCCN3)cn2)cc1 [Compound 3l]
Intracellular Amastigotes SI: >7

Moving on to the next compound.
INPUT: API: value(readout=Intracellular Amastigotes SI, system=intracellular amastigotes of T. cruzi) for record O=C(Cn1ccnc1[N+](=O)[O-])NCc1ccccc1 [Bz, benznidazole, reference compound]
OUTPUT: >107
